Test system: SNB-75
Experiment: Anticancer activity against Homo sapiens (human) SNB75 cells after 48 hr by SRB assay
Assay type: functional
Settings: SNB-75, 48 h

[
  {
    "smiles_representation": "COc1ccc(OC)c(/C=C/c2nnc(Nc3ccc(Cl)cc3)o2)c1",
    "GI50": "2260 nM"
  },
  {
    "smiles_representation": "COc1ccc(OC)c(/C=C/C(=O)N/N=C/c2ccc(Cl)cc2)c1",
    "GI50": "98 nM"
  },
  {
    "smiles_representation": "COc1ccc(OC)c(/C=C/c2nnc(S)n2-c2ccc(Cl)cc2)c1",
    "GI50": "2850 nM"
  },
  {
    "smiles_representation": "COc1ccc(OC)c(/C=C/C(=O)N/N=C/c2ccccc2)c1",
    "GI50": "4390 nM"
  }
]

---

Tested on: Staphylococcus aureus
Assay: Antimicrobial activity against Staphylococcus aureus DSM 1104 after 48 hr by two-fold serial broth dilution method
Type: functional
Settings: DSM 1104, 48 h
measure: log10(MIC) (log10 of the value in µg/mL)

[
  {
    "compound": "CCSc1nnc(/C=C/c2cc(OC)ccc2OC)n1-c1ccc(C)cc1",
    "measure": "log10(MIC)",
    "measured_value": 2.00
  },
  {
    "compound": "COc1ccc(OC)c(/C=C/C2=NN(C(C)=O)C(c3ccc([N+](=O)[O-])cc3)O2)c1 (stereo unspecified)",
    "measure": "log10(MIC)",
    "measured_value": 2.00
  },
  {
    "compound": "COc1ccc(OC)c(/C=C/c2nnc(S)n2-c2ccc(C)cc2)c1",
    "measure": "log10(MIC)",
    "measured_value": 1.10
  },
  {
    "compound": "CC1(C)S[C@@H]2[C@H](NC(=O)[C@H](N)c3ccccc3)C(=O)N2[C@H]1C(=O)O.O.O.O [AMPICILLIN TRIHYDRATE]",
    "measure": "log10(MIC)",
    "measured_value": 0.70
  },
  {
    "compound": "COc1ccc(OC)c(/C=C/c2nnc(SC)n2-c2ccc(Cl)cc2)c1",
    "measure": "log10(MIC)",
    "measured_value": 2.00
  },
  {
    "compound": "COc1ccc(OC)c(/C=C/c2nnc(S)n2-c2ccccc2)c1",
    "measure": "log10(MIC)",
    "measured_value": 1.70
  },
  {
    "compound": "COc1ccc(OC)c(/C=C/c2nnc(S)n2-c2ccc(Cl)cc2)c1",
    "measure": "log10(MIC)",
    "measured_value": 2.00
  },
  {
    "compound": "COc1ccc(OC)c(/C=C/c2nnc(Nc3ccc(C)cc3)s2)c1",
    "measure": "log10(MIC)",
    "measured_value": 2.00
  },
  {
    "compound": "CCSc1nnc(/C=C/c2cc(OC)ccc2OC)n1-c1ccccc1",
    "measure": "log10(MIC)",
    "measured_value": 2.00
  },
  {
    "compound": "COc1ccc(OC)c(/C=C/c2nnc(Nc3ccc(Cl)cc3)o2)c1",
    "measure": "log10(MIC)",
    "measured_value": 1.70
  },
  {
    "compound": "COc1ccc(OC)c(/C=C/C(=O)N/N=C/c2ccc([N+](=O)[O-])cc2)c1",
    "measure": "log10(MIC)",
    "measured_value": 2.00
  },
  {
    "compound": "COc1ccc(OC)c(/C=C/C2=NN(C(C)=O)C(c3ccc(Cl)cc3)O2)c1 (stereo unspecified)",
    "measure": "log10(MIC)",
    "measured_value": 2.00
  },
  {
    "compound": "COc1ccc(OC)c(/C=C/c2nnc(SCC(=O)c3cc(O)ccc3O)n2-c2ccc(C)cc2)c1",
    "measure": "log10(MIC)",
    "measured_value": 1.10
  },
  {
    "compound": "COc1ccc(OC)c(/C=C/C2=NN(C(C)=O)C(c3ccccc3)O2)c1 (stereo unspecified)",
    "measure": "log10(MIC)",
    "measured_value": 1.40
  },
  {
    "compound": "COc1ccc(OC)c(/C=C/c2nnc(Nc3ccc(Cl)cc3)s2)c1",
    "measure": "log10(MIC)",
    "measured_value": 1.40
  },
  {
    "compound": "COc1ccc(OC)c(/C=C/c2nnc(SCC(=O)c3cc(O)ccc3O)n2-c2ccccc2)c1",
    "measure": "log10(MIC)",
    "measured_value": 1.40
  },
  {
    "compound": "COc1ccc(OC)c(/C=C/c2nnc(Nc3ccccc3)o2)c1",
    "measure": "log10(MIC)",
    "measured_value": 1.40
  },
  {
    "compound": "COc1ccc(OC)c(/C=C/C(=O)N/N=C/c2ccccc2)c1",
    "measure": "log10(MIC)",
    "measured_value": 2.00
  },
  {
    "compound": "COc1ccc(OC)c(/C=C/c2nnc(SCC(=O)c3cc(O)ccc3O)n2-c2ccc(Cl)cc2)c1",
    "measure": "log10(MIC)",
    "measured_value": 1.70
  },
  {
    "compound": "COc1ccc(OC)c(/C=C/c2nnc(SC)n2-c2ccccc2)c1",
    "measure": "log10(MIC)",
    "measured_value": 1.70
  },
  {
    "compound": "CCSc1nnc(/C=C/c2cc(OC)ccc2OC)n1-c1ccc(Cl)cc1",
    "measure": "log10(MIC)",
    "measured_value": 2.00
  }
]

---

Tested on: HCC 2998
Assay: Anticancer activity against Homo sapiens (human) HCC2998 cells after 48 hr by SRB assay
Type: functional
Conditions: HCC 2998, 48 h
measure: GI50 (nM)

[
  {
    "smiles_representation": "COc1ccc(OC)c(/C=C/C(=O)N/N=C/c2ccccc2)c1",
    "study_system": "HCC 2998",
    "measure": "GI50",
    "qualifier_sign": "=",
    "measured_value": 2350
  },
  {
    "smiles_representation": "COc1ccc(OC)c(/C=C/c2nnc(Nc3ccc(Cl)cc3)o2)c1",
    "study_system": "HCC 2998",
    "measure": "GI50",
    "qualifier_sign": ">",
    "measured_value": 100000
  },
  {
    "smiles_representation": "COc1ccc(OC)c(/C=C/C(=O)N/N=C/c2ccc(Cl)cc2)c1",
    "study_system": "HCC 2998",
    "measure": "GI50",
    "qualifier_sign": "=",
    "measured_value": 139
  },
  {
    "smiles_representation": "COc1ccc(OC)c(/C=C/c2nnc(S)n2-c2ccc(Cl)cc2)c1",
    "study_system": "HCC 2998",
    "measure": "GI50",
    "qualifier_sign": "=",
    "measured_value": 13300
  }
]

---

System: HOP-62
Assay: Anticancer activity against Homo sapiens (human) HOP62 cells after 48 hr by SRB assay
Assay type: functional
Conditions: HOP-62, 48 h
measure: TGI (µM)

[
  {
    "smiles_representation": "COc1ccc(OC)c(/C=C/c2nnc(Nc3ccc(Cl)cc3)o2)c1",
    "unit_tag": "µM",
    "qualifier_sign": "=",
    "measured_value": 7.68
  },
  {
    "smiles_representation": "COc1ccc(OC)c(/C=C/c2nnc(S)n2-c2ccc(Cl)cc2)c1",
    "unit_tag": "µM",
    "qualifier_sign": ">",
    "measured_value": 100
  },
  {
    "smiles_representation": "COc1ccc(OC)c(/C=C/C(=O)N/N=C/c2ccccc2)c1",
    "unit_tag": "µM",
    "qualifier_sign": ">",
    "measured_value": 100
  },
  {
    "smiles_representation": "COc1ccc(OC)c(/C=C/C(=O)N/N=C/c2ccc(Cl)cc2)c1",
    "unit_tag": "µM",
    "qualifier_sign": "=",
    "measured_value": 50.2
  }
]
